growth by entry:
System: SN12C renal
Experiment: NCI-60 one-dose screen, 48 h (100 = growth as untreated, 0 = no growth, -100 = all killed)
Settings: 10 µM unless noted
About 83,000 compounds went through this panel and 20% of them were active in at least one assay; those are over-represented in the sample as a whole.
Observation type: growth (%)

In [3]: df
Out[3]:
                                   compound  observation_type  result
0  CCn1cc(C(=O)N/N=C/c2ccc(Br)cc2)c(=O)c2cc(F)c(N3CCNC(C)C3)c(F)c21 (stereo not given)            growth    52.2
1        O=C(Cn1nnc2ccccc21)N/N=C/c1ccccc1F            growth    83.9
2        C/C(=N\O)C(=O)NCCCCCC(=O)Nc1ccccc1            growth    98.5
3  CC12CCC(/C(=C/NNc3ccc([N+](=O)[O-])cc3[N+](=O)[O-])C1=O)C2(C)C (stereo not given)            growth    73.1
4           Clc1ccc(-c2cn3ccsc3n2)c(Cl)c1Cl            growth    77.9

----------
Tested on: NCI-H322M lung
Experiment: NCI-60 one-dose screen, 48 h (100 = growth as untreated, 0 = no growth, -100 = all killed)
Conditions: 10 µM unless noted
The panel holds about 83,000 compounds, 20% with a hit somewhere; the sample as a whole holds those more often.
Entries and their measured growth follow.

Compound	Unit abbrev	growth
CCN(CC)S(=O)(=O)c1ccc(S(=O)(=O)N2CCC[C@@H](C(=O)N3CCN(C(=O)OC(C)(C)C)CC3)C2)cc1	%	88.5
CS(=O)(=O)Cc1cnc(C2OCCO2)s1	%	100
CCN1C(=S)N(CC)C2C1NC(=S)N2/N=C/C=C/c1ccccc1OC (stereo not given)	%	45.2
C=CC(C)(O)CC/C=C(\CO)C(=O)OC1C(C)OC(O[C@](C)(C=C)CC/C=C(\CO)C(=O)O[C@H]2C[C@@]3(C(=O)OC4OC(CO)C(O)C(O)C4OC4OC(C)C(OC5OC(CO)C(O)C5O)C(OC5OC(CO)C(O)C(O)C5O)C4O)C(CC2(C)C)C2=CCC4[C@@]5(C)CC[C@H](OC6OC(COC7OC(C)C(O)C(O)C7OC7OCC(O)C(O)C7O)C(O)C(O)C6NC(C)=O)C(C)(C)C5CC[C@@]4(C)[C@]2(C)C[C@H]3O)C(O)C1O (stereo not given in full)	%	-78.4
CCOC(=O)NN1CC(O)=C(c2nc(-c3ccc(Br)cc3)cs2)C1=N	%	112
COc1ccc2nc(SCC(=O)Nc3ccccc3C)[nH]c2c1	%	90
COc1cc(/C=C2\CN(S(=O)(=O)c3ccc(C)cc3)C/C(=C\c3cc(CN4CCCCC4)c(O)c(OC)c3)C2=O)cc(CN2CCCCC2)c1O	%	-74.4
O=C1OCC2=C1C(c1cccc(F)c1)c1cc3c(cc1N2CCO)OCO3 (stereo not given)	%	51.2
O=C1C(Cl)=C(NCCN2CCOCC2)C(=O)c2ncccc21	%	1.09
O=C(OC[C@@H]1CO1)c1cccc2c(=O)c3ccccc3[nH]c12	%	-13
O=C(CN1CCN(c2cc3c(cc2F)c(=O)c(C(=O)O)cn3C2CC2)CC1)N/N=C/c1ccncc1	%	96.3
COc1cc2c3c(n(CCCCNCCCn4c5c(c6cc(OC)c(OC)cc6c4=O)C(=O)c4cc6c(cc4-5)OCO6)c(=O)c2cc1OC)-c1cc2c(cc1C3=O)OCO2	%	90.5
C=C1C(=O)O[C@H]2[C@H]1CC/C(CNC(=O)c1cc3ccccc3[nH]1)=C\CC[C@@]1(C)O[C@@H]21	%	63.8
O=C(O)c1cn(C2CC2)c2cc(N3CCN(C(=O)N/N=C/c4ccccc4)CC3)c(F)cc2c1=O	%	100
C=CCn1c(SCC(=O)Nc2ccc(C(=O)/C=C/c3cc(OC)c(OC)c(OC)c3)cc2)nnc1-c1cc(-c2ccc(OC)cc2)nc2ccccc12	%	97.5
